Reported TGI by item:
system: EKVX NSCLC; assay: NCI tumour cell line growth inhibition, 48 h

molecule: Nc1ccc2ncc(NCc3ccc(F)cc3)nc2c1
TGI: > 100 µM

State the recorded TGI for this entry: COC1C[C@H](O[C@@H]2C[C@H](O[C@@H]3C[C@H](O[C@@H]4C(=O)c5c(cc6cc(O[C@H]7C[C@@H](O[C@H]8C[C@@H](O)[C@H](O)C(C)O8)[C@H](O)C(C)O7)c(C)c(O)c6c5O)C[C@H]4C(OC)C(=O)[C@@H](O)[C@@H](C)O)OC(C)[C@H]3O)OC(C)[C@@H]2O)OC(C)[C@@H]1O (stereo not given in full) 10.3 µM

State the recorded TGI for this entry: CN(C)CC(O)CNC(=O)Nc1ccccc1 (stereo not given) > 100 µM

State the recorded TGI for this entry: "O=S(=O)(O)c1ccc([Se][Se]c2ccc(S(=O)(=O)O)cc2)cc1" > 100 µM

State the recorded TGI for this entry: "COc1cc(-c2cc(-c3ccc(Nc4nc(Nc5ccc(Cl)cc5)nc(Nc5ccc(Cl)cc5)n4)cc3)no2)cc(OC)c1OC" > 100 µM

State the recorded TGI for this entry: "O=C1NC(=O)/C(=C/c2ccc3nccc(-c4ccncc4)c3c2)S1" 3.67 µM

State the recorded TGI for this entry: "CC(C)c1cccc(C(C)C)c1NC(=O)/C(Cc1nc2ccc(Cl)cc2[nH]c1=O)=N\NC(=O)C[N+](C)(C)C" > 100 µM

State the recorded TGI for this entry: "C/C(COc1ccccc1)=N\NC(N)=S" > 100 µM

State the recorded TGI for this entry: "c1ccc(OCC[P+](c2ccccc2)(c2ccccc2)c2ccccc2)cc1" > 40.1 µM

State the recorded TGI for this entry: "Cc1ccc(O)c(C(=O)/C=C/c2ccccc2)c1" > 100 µM

State the recorded TGI for this entry: "O=C(Nc1n[nH]c2cc(-c3ccc(F)cc3)ccc12)C1CC1" > 25 µM

State the recorded TGI for this entry: OCC1OC(n2cnc3cc(Cl)c(Cl)cc32)C(O)C1O (stereo not given) 50.8 µM

State the recorded TGI for this entry: "Cc1cc(NCCCCCCCCNc2cc(C)nc3cc(N(C)C)ccc23)c2ccc(N(C)C)cc2n1" 28.5 µM

State the recorded TGI for this entry: O=S1c2ccccc2N=C(c2cccs2)CC1c1ccccc1O (stereo not given) > 100 µM

State the recorded TGI for this entry: "COc1cc(/C=C/[N+](=O)[O-])cc(OC)c1" 27.1 µM

State the recorded TGI for this entry: "Nc1nc(Cl)cc(OCC2(CO)CCCCC2)n1" > 100 µM

State the recorded TGI for this entry: "Cn1cc(-c2nc(-c3c[nH]c4ccccc34)cs2)c2cccnc21" > 100 µM

State the recorded TGI for this entry: CCOC1=C2N=C(C(CC)c3ccc(F)cc3)N=C2C(=O)c2ccccc21 (stereo not given) > 79.7 µM

State the recorded TGI for this entry: "COc1cc2cc(C(=O)Nc3ccccc3)c(N)nc2cc1OC" > 100 µM

State the recorded TGI for this entry: Cc1ccc(S(=O)(=O)N(CC(O)COc2ccccc2)c2ccccc2Cl)cc1 (stereo not given) 31.8 µM
